Molecular target: Lysine-specific demethylase 4A (Homo sapiens, UniProt O75164)
Sequence (O75164 whole entry): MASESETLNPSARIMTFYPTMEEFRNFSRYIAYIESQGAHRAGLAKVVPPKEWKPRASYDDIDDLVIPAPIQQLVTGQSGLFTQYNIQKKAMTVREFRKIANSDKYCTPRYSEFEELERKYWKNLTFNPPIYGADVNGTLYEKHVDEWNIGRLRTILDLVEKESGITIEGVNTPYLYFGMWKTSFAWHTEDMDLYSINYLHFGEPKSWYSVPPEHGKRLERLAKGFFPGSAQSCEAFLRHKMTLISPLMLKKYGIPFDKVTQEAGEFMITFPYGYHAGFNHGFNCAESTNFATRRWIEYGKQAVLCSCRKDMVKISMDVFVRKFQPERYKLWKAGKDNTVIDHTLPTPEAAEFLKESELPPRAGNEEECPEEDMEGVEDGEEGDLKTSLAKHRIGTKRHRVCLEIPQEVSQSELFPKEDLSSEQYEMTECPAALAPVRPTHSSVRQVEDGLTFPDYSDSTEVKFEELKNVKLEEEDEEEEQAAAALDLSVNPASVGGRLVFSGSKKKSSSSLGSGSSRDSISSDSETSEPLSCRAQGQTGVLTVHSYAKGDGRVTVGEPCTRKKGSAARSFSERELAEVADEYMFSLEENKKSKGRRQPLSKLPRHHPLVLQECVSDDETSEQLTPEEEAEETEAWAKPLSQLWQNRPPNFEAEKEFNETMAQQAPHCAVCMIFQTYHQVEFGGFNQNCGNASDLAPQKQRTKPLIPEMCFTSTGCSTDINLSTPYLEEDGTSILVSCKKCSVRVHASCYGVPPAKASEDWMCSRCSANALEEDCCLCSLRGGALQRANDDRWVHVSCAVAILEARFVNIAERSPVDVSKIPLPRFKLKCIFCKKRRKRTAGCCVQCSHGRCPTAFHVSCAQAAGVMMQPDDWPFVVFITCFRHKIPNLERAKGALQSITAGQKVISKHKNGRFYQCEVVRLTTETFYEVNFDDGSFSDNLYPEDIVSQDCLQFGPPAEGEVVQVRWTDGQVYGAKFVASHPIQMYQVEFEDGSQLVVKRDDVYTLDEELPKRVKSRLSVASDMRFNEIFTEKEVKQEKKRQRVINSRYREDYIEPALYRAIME
measurementName: IC50

These solved cases illustrate the format of a correct answer.
recordSmiles | testValue
CN(C)CCCCCCNC(=O)c1cccc(-c2cc(O)c3ncccc3c2)c1 | < 1000 nM
O=C(O)c1ccc(O)c2ncc(N3CCCN(CCc4cccc5ccccc45)CC3)cc12 | < 1000 nM

Return IC50 for the following molecule: O=C(NCCCc1ccccc1)c1cccc(-c2cc(O)c3ncccc3c2)c1
< 1000 nM

###

biological target: Lysine-specific demethylase 6B (Homo sapiens, UniProt O15054); assay: Inhibition of human C-terminal FLAG-tagged KDM6B (1043 residues) expressed in baculovirus infected sf9 cells using H3K27me3 (21 to 44 residues) substrate preincubated for 10 mins followed by substrate addition measured after 45 mins by TR-FRET assay
Sequence (O15054 whole entry, the tested form may be a part): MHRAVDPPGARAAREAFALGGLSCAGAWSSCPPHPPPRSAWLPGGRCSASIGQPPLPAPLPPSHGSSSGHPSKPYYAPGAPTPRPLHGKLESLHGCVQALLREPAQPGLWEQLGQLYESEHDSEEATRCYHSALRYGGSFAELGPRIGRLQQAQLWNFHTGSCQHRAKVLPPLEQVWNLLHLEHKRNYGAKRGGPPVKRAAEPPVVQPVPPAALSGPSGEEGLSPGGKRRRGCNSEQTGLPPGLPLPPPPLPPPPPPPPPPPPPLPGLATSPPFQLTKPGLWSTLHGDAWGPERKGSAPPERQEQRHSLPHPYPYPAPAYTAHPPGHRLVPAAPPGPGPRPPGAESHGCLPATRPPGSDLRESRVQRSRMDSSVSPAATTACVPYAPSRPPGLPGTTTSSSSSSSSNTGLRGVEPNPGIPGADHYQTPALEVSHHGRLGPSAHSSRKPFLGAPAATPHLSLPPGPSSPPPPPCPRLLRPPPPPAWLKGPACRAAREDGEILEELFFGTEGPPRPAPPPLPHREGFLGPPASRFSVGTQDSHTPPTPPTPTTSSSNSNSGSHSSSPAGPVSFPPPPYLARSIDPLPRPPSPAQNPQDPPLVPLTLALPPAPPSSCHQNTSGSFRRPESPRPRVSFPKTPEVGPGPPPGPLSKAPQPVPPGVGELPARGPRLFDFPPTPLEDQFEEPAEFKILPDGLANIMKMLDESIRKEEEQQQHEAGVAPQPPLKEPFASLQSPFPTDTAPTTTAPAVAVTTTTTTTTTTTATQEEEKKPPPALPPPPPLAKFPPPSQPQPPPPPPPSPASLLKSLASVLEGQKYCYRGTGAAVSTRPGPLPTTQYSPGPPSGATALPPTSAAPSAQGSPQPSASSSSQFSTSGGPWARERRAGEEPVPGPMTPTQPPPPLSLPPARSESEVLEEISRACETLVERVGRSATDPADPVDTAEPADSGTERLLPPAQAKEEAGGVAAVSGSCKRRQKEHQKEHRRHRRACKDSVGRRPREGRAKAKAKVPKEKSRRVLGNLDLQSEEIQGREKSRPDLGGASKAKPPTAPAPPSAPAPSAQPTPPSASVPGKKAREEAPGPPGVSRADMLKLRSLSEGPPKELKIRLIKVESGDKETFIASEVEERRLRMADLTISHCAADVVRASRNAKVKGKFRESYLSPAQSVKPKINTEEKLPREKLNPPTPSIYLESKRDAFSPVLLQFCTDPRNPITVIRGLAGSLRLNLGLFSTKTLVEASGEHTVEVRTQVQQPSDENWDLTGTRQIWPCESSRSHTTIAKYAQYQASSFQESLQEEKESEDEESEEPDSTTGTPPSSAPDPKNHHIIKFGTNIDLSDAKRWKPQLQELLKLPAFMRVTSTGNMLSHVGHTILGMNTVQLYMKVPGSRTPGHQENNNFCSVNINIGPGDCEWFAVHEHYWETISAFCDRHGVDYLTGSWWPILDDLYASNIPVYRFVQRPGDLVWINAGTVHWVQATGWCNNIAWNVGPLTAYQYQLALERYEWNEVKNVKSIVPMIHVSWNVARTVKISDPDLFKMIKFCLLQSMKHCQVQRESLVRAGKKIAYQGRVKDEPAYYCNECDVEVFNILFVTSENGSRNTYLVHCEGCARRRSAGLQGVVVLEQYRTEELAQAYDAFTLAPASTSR
measurementName: IC50 (µM)
// units = µM; emit number, no label

Return IC50 for the following molecule: NNC(=O)Cc1nnn[nH]1
98

###

target: Lysine-specific demethylase 6B (Homo sapiens); assay: biochemical
pIC50: −log10 of the molar value.
measurementName: pIC50

These solved cases illustrate the format of a correct answer.
recordSmiles | targetEntity | pIC50
CCN(CCN(C)C)C(=O)CNCc1cc(CNC(=O)C(F)(F)F)ccn1 | Lysine-specific demethylase 6B (Homo sapiens) | < 5.60
CCN(CC)CCCCNCc1cc(C=O)ccn1 | Lysine-specific demethylase 6B (Homo sapiens) | < 5.60

Moving on to another compound below.
Return pIC50 for the following compound: CCN(CCN(C)C)C(=O)CNCc1cc(C(=O)O)ccn1
< 6.00

###

Entries with reported IC50 on Lysine-specific demethylase 5B (Homo sapiens)
Sequence (Q9UGL1 whole entry): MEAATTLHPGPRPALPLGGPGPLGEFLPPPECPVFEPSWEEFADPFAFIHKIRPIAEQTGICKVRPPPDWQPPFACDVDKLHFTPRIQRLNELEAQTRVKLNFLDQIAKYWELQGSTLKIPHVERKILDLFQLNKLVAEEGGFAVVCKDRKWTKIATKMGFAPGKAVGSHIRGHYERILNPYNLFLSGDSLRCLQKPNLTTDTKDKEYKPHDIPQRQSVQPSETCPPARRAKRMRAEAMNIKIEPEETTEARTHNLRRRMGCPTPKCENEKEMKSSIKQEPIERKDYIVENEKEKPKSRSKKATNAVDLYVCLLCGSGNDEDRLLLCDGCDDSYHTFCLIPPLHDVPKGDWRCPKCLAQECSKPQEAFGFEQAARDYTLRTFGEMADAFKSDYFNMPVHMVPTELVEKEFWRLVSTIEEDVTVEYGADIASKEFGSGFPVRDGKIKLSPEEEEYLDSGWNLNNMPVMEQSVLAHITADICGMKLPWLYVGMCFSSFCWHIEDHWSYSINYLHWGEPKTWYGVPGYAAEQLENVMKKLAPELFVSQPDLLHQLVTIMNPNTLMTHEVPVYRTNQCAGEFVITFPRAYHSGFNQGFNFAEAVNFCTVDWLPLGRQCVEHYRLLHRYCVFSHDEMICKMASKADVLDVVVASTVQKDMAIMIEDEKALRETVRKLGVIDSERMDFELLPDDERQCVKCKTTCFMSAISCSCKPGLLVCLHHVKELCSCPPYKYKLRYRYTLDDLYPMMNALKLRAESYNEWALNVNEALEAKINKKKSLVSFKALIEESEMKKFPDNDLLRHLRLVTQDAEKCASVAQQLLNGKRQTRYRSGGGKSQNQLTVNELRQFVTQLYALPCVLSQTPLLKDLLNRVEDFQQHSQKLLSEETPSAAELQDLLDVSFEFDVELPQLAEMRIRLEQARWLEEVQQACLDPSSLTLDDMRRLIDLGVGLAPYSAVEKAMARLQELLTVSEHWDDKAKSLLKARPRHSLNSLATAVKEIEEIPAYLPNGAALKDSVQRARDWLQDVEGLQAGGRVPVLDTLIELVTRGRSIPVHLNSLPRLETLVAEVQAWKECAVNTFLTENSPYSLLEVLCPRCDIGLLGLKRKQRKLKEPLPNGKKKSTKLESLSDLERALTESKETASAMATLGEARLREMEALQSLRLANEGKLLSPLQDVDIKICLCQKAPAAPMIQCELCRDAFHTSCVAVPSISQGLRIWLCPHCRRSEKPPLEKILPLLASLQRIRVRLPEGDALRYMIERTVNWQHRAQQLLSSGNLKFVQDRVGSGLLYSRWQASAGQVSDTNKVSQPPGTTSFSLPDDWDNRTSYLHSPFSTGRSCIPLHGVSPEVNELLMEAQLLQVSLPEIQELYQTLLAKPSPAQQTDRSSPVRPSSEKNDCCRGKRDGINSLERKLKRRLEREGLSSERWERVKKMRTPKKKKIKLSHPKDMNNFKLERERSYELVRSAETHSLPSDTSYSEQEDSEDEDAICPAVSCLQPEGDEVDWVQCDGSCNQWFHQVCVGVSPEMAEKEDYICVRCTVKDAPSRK
measurementName: IC50 (nM)

recordSmiles | targetEntity | IC50, nM
COc1ccc(-c2c(-c3cc(C(=O)O)ccn3)ncn2C)cc1 | Lysine-specific demethylase 5B (Homo sapiens) | 1000
O=C(O)c1ccncc1Nc1nn(C2CCCC2)c2ccc(F)cc12 | Lysine-specific demethylase 5B (Homo sapiens) | 100
COC(=O)c1ccnc(-n2nccc2OCc2ccc(Cl)cc2)c1 | Lysine-specific demethylase 5B (Homo sapiens) | 100
Cn1nc(Nc2cnccc2C(=O)O)c2cccnc21 | Lysine-specific demethylase 5B (Homo sapiens) | 100

(P) Cn1cnc(-c2cc(C(=O)O)ccn2)c1-c1ccc(OCC2CC2)cc1
(Q) O=C(O)c1ccnc(-n2nccc2OCc2ccc(Cl)cc2)c1
Sort P and Q by IC50 descending and give the first. API: response body contains the label of the selected item.
P

###

molecular target: Amine oxidase [flavin-containing] A (Homo sapiens, UniProt P21397); assay: Inhibition of human recombinant MAO-A expressed in Pichia pastoris preincubated for 15 mins followed by substrate addition measured after 30 mins by MAO-Glo assay
Sequence (P21397 whole entry): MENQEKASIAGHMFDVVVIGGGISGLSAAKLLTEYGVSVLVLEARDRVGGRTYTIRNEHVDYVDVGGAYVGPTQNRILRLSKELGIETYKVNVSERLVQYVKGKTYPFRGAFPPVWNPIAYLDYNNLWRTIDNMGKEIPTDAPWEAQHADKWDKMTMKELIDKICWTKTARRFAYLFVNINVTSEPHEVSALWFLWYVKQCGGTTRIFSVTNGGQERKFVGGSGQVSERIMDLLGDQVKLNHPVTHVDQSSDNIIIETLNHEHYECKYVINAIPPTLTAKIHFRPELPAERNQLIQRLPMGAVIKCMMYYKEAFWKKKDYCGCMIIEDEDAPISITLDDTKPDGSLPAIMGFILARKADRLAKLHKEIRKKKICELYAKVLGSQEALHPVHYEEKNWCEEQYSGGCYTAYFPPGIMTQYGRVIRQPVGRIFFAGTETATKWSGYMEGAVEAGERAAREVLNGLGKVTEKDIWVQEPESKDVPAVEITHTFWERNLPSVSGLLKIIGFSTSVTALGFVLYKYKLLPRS
measurementName: IC50

Return IC50 for the following compound: CN1CCN(c2ccc(C(=O)Nc3ccc([C@@H]4C[C@]4(N)CCc4ccccc4)cc3)cc2)CC1 (racemic)
> 10 µM

###

Target: UniProtKB Q9H3R0
Sequence (Q9H3R0 whole entry): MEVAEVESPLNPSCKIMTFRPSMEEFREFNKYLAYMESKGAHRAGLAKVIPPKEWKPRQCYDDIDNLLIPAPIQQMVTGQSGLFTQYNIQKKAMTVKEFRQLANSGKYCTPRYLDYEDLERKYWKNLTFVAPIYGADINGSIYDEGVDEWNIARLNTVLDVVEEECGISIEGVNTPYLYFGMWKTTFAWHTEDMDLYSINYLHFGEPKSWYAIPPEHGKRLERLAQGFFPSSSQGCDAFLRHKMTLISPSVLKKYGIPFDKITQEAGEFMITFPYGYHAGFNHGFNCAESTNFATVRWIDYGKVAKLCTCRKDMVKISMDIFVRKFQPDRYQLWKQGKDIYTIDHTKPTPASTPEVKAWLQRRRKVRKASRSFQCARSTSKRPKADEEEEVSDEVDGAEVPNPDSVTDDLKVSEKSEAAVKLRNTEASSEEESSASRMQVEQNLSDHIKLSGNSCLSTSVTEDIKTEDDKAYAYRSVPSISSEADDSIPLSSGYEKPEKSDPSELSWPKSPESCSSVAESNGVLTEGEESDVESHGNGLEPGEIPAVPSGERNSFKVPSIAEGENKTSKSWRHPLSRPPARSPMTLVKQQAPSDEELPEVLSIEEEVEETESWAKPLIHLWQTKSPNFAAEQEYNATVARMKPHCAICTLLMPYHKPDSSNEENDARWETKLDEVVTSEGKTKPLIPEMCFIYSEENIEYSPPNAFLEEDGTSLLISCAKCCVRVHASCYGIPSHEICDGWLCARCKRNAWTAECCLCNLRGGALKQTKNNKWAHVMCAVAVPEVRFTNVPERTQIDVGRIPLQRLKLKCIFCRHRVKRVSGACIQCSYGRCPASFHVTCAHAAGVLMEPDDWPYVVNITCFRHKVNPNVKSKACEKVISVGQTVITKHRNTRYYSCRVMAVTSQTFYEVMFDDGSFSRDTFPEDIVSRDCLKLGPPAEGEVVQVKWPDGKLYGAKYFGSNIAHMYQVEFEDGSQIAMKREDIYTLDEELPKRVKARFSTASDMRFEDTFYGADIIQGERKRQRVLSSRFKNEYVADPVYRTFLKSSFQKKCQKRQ
Test: Inhibition of KDM4C (unknown origin) using H3K9me3 as substrate after 24 hrs by alphascreen assay
measurementName: pIC50
pIC50 field: float, defined as -log10 of concentration (mol/L).

Return pIC50 for the following compound: CCCCCCCCOC(=O)c1ccc(O)c2ncccc12
5.41

###

biological target: Lysine-specific demethylase 6B (Homo sapiens); experiment: Inhibition of KDM6B (unknown origin) preincubated for 15 mins followed by histone substrate addition measured after 1 hr by alphascreen assay
measurementName: pIC50
pIC50 field: float, defined as -log10 of concentration (mol/L).

Answer with pIC50 of Cc1ccsc1C(NC(=O)c1ccccc1)c1cc(Cl)c2cccnc2c1O (racemic) measured for Lysine-specific demethylase 6B (Homo sapiens).
3.97

###

molecular target: Lysine-specific histone demethylase 1A (Homo sapiens, UniProt O60341); assay: Inhibition of recombinant human N-terminal GST-tagged KDM1A expressed in Escherichia coli using H3K4me2 as substrate preincubated for 15 mins followed by substrate addition measured after 1 hr by peroxidase coupled enzyme assay
measurementName: IC50 (µM)
// units = µM; emit number, no label

Return IC50 for the following compound: CC(C)S(=O)(=O)Nc1cccc(-c2ccc([C@H]3C[C@@H]3N)cc2)c1
0.07

###

biological target: Egl nine homolog 1 (Homo sapiens, UniProt Q9GZT9); experiment: Inhibition of PHD2 (unknown origin) preincubated for 15 mins followed by histone substrate addition measured after 1 hr by alphascreen assay
Sequence (Q9GZT9 whole entry): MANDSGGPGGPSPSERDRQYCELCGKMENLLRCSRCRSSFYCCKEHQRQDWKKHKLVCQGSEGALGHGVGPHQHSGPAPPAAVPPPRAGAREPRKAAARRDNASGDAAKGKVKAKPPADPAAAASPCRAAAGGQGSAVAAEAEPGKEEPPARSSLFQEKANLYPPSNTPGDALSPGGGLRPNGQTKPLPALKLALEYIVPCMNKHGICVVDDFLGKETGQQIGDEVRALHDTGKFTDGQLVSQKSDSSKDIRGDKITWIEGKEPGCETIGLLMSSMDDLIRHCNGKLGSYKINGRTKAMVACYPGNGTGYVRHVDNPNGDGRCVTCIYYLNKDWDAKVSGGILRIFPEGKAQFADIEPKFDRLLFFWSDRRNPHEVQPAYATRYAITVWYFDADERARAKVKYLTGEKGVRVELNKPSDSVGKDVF
measurementName: pIC50
pIC50 field: float, defined as -log10 of concentration (mol/L).

Return pIC50 for the following molecule: Cc1ccsc1C(NC(=O)c1ccccc1)c1cc(Cl)c2cccnc2c1O (racemic)
4.02

Where these numbers come from: ChEMBL document CHEMBL3784917
